# TEST_SYSTEM: T1, rat-type galanin (SEQ ID NO: 61) (Rattus norvegicus, UniProt P10683)
# T1 sequence (P10683 33-61 limits assumed): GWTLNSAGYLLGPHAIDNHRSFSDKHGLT
# ASSAY_COMMENT: Competitive EIA of monoclonal antibodies against rat galanin
# Format: binding
# CONDITIONS: B/B0 in the presence of 100 nM immunogen; HRP-labeled SEQ ID NO: 44
PARAMETER_MEASURED: Reactivity Rat Galanin (SEQ ID NO: 61)

MOLECULE	ENDPOINT_VALUE
4 (protein, Rat) MELAPVNLSEGNGSDPEPPAEPRPLFGIGVENFITLVVFGLIFAMGVLGNSLVITVLARSKPGKPRSTTNLFILNLSIADLAYLLFCIPFQATVYALPTWVLGAFICKFIHYFFTVSMLVSIFTLAAMSVDRYVAIVHSRRSSSLRVSRNALLGVGFIWALSIAMASPVAYYQRLFHRDSNQTFCWEHWPNQLHKKAYVVCTFVFGYLLPLLLICFCYAKVLNHLHKKLKNMSKKSEASKKKTAQTVLVVVVVFGISWLPHHVIHLWAEFGAFPLTPASFFFRITAHCLAYSNSSVNPIIYAFLSENFRKAYKQVFKCRVCNESPHGDAKEKNRIDTPPSTNCTHV	− (0.80 ≦ (B/B0))
3 (protein, Rat) MADIQNISLDSPGSVGAVAVPVIFALIFLLGMVGNGLVLAVLLQPGPSAWQEPSSTTDLFILNLAVADLCFILCCVPFQAAIYTLDAWLFGAFVCKTVHLLIYLTMYASSFTLAAVSLDRYLAVRHPLRSRALRTPRNARAAVGLVWLLAALFSAPYLSYYGTVRYGALELCVPAWEDARRRALDVATFAAGYLLPVAVVSLAYGRTLCFLWAAVGPAGAAAAEARRRATGRAGRAMLAVAALYALCWGPHHALILCFWYGRFAFSPATYACRLASHCLAYANSCLNPLVYSLASRHFRARFRRLWPCGRRRHRHHHRAHRALRRVQPASSGPAGYPGDARPRGWSMEPRGDALRGGGETRLTLSPRGPQ	− (0.80 ≦ (B/B0))
5 (protein, Rat) MNGSGSQGAENTSQEGGSGGWQPEAVLVPLFFALIFLVGTVGNALVLAVLLRGGQAVSTTNLFILNLGVADLCFILCCVPFQATIYTLDDWVFGSLLCKAVHFLIFLTMHASSFTLAAVSLDRYLAIRYPLHSRELRTPRNALAAIGLIWGLALLFSGPYLSYYRQSQLANLTVCHPAWSAPRRRAMDLCTFVFSYLLPVLVLSLTYARTLRYLWRTVDPVTAGSGSQRAKRKVTRMIIIVAVLFCLCWMPHHALILCVWFGRFPLTRATYALRILSHLVSYANSCVNPIVYALVSKHFRKGFRKICAGLLRPAPRRASGRVSILAPGNHSGSMLEQESTDLTQVSEAAGPLVPPPALPNCTASSRTLDPAC	− (0.80 ≦ (B/B0))
